system: Abutilon theophrasti; assay: Post-emergence herbicidal activity against Abutilon theophrasti (velvetleaf) assessed as inhibition at 150 g/hectare treated at two-leaf stage by green house assay; format: functional
Property Label: inhibition at 150 g/ha (%)
Only the number, expressed in %, is required.

[
  {
    "Compound": "CC1(C)COP(=O)(C(OC(=O)COc2ccc(Cl)cc2Cl)c2ccccc2)OC1 (stereo unspecified)",
    "Units Symbol": "%",
    "inhibition at 150 g/ha": 98
  },
  {
    "Compound": "Cc1cc(OCC(=O)OC(c2ccccc2)P2(=O)OCC(C)(C)CO2)ccc1Cl (stereo unspecified)",
    "Units Symbol": "%",
    "inhibition at 150 g/ha": 65
  },
  {
    "Compound": "Cc1cc(Cl)ccc1OCC(=O)OC(c1ccco1)P1(=O)OCC(C)(C)CO1 (stereo unspecified)",
    "Units Symbol": "%",
    "inhibition at 150 g/ha": 100
  }
]

Write down the reported inhibition at 150 g/ha of CC1(C)COP(=O)(C(OC(=O)COc2ccccc2Cl)c2ccco2)OC1 (stereo unspecified) , test system: Abutilon theophrasti.
70

Write down the reported inhibition at 150 g/ha of CC1(C)COP(=O)(C(OC(=O)COc2ccccc2Cl)c2ccccc2)OC1 (stereo unspecified) , test system: Abutilon theophrasti.
70

Write down the reported inhibition at 150 g/ha of Cc1cc(OCC(=O)OC(C)P2(=O)OCC(C)(C)CO2)ccc1Cl (stereo unspecified) , test system: Abutilon theophrasti.
70

Write down the reported inhibition at 150 g/ha of CC1(C)COP(=O)(C(OC(=O)COc2ccc(Cl)cc2)c2ccccc2)OC1 (stereo unspecified) , test system: Abutilon theophrasti.
65

Write down the reported inhibition at 150 g/ha of CC(OC(=O)COc1ccc(Cl)cc1Cl)P1(=O)OCC(C)(C)CO1 (stereo unspecified) , test system: Abutilon theophrasti.
95

Write down the reported inhibition at 150 g/ha of Cc1cc(Cl)ccc1OCC(=O)OC(c1ccccc1)P1(=O)OCC(C)(C)CO1 (stereo unspecified) , test system: Abutilon theophrasti.
100

Write down the reported inhibition at 150 g/ha of CC1(C)COP(=O)(C(OC(=O)COc2ccc(Cl)cc2Cl)c2ccc(Cl)cc2)OC1 (stereo unspecified) , test system: Abutilon theophrasti.
90

Write down the reported inhibition at 150 g/ha of CC(OC(=O)COc1ccc(Cl)cc1)P1(=O)OCC(C)(C)CO1 (stereo unspecified) , test system: Abutilon theophrasti.
70

Write down the reported inhibition at 150 g/ha of COP(=O)(OC)C(C)OC(=O)COc1ccc(Cl)cc1C (stereo unspecified) , test system: Abutilon theophrasti.
82

Write down the reported inhibition at 150 g/ha of Cc1cc(OCC(=O)OC(c2ccco2)P2(=O)OCC(C)(C)CO2)ccc1Cl (stereo unspecified) , test system: Abutilon theophrasti.
70

Write down the reported inhibition at 150 g/ha of CC(OC(=O)COc1ccccc1Cl)P1(=O)OCC(C)(C)CO1 (stereo unspecified) , test system: Abutilon theophrasti.
70

Write down the reported inhibition at 150 g/ha of CCCCC(OC(=O)COc1ccc(Cl)cc1Cl)P1(=O)OCC(C)(C)CO1 (stereo unspecified) , test system: Abutilon theophrasti.
90

Write down the reported inhibition at 150 g/ha of CC(C)C(OC(=O)COc1ccc(Cl)cc1Cl)P1(=O)OCC(C)(C)CO1 (stereo unspecified) , test system: Abutilon theophrasti.
95

Write down the reported inhibition at 150 g/ha of CC1(C)COP(=O)(C(OC(=O)COc2ccc(Cl)cc2)c2ccco2)OC1 (stereo unspecified) , test system: Abutilon theophrasti.
70
